Would you kindly list Percent Effect for each of these compounds?
# system name: Proteasome subunit beta (Trypanosoma cruzi) (UniProt O96673)
# Sequence (O96673 as listed by the source): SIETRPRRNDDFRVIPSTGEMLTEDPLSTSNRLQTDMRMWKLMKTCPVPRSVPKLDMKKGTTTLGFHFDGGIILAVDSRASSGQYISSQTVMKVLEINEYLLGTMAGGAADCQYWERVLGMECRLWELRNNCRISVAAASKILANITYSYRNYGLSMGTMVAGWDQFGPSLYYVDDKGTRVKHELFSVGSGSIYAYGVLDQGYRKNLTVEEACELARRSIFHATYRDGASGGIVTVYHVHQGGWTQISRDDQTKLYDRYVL
# measurement description: Trypanosoma cruzi proteasome chymotrypsin-like activity (TcProtChymo) assay.
# Assay type: functional
# Set-up: scale not given: in the data most compounds retested in dose-response had high values
# test settings: 9.37 µM
Give bare numbers, in %.

Batch of 3 compounds: report Percent Effect for each.
1. COCc1cnc2n1CCN(Cc1cccnc1)C2C (stereo not drawn)
2. CNC(=O)[C@@]12CCC3(CCN(S(C)(=O)=O)CC3)[C@@H]1CN(S(C)(=O)=O)C2
3. COCC(O)CNC(=O)c1coc(COc2ccc3sc(C)nc3c2)n1 (stereo not drawn)

1. -0.171
2. 6.78
3. 14.7
